// pIC50 lookup, one value per entry
Molecular target: EP4 (Homo sapiens (Human), UniProt P35408)
Sequence (P35408 whole entry): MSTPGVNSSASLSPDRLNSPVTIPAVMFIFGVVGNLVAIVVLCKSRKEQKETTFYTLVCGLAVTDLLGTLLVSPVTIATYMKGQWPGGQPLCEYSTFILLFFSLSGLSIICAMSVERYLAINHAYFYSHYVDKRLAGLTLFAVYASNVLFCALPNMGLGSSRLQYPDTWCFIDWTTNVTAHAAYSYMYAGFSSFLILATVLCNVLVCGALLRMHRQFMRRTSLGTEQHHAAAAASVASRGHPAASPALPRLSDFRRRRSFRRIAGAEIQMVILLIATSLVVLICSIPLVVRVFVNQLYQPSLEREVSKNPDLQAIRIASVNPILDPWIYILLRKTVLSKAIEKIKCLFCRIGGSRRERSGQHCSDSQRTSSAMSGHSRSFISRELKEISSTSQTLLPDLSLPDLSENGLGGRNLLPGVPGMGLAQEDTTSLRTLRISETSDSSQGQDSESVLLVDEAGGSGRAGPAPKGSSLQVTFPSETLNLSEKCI
Experiment: hEP4 cAMP assay (BT549 breast cancer cells, HTRF cAMP)
Format: cell-based
Conditions: antagonistic activity; mean values where measured multiple times
Reminder that pIC50 is minus the log10 of a molar concentration.

Previously resolved entries follow.
>>> endpoint_result("CCOc1cc(-c2cc(NCCn3c(C)cc4c(OC)c(Cl)cc(F)c43)ncn2)sc1C(=O)O")
6.84
>>> endpoint_result("CCCOc1cc(-c2cc(NCCn3c(C)cc4c(OC)cc(F)cc43)ncn2)cc(F)c1C(=O)O")
6.90
>>> endpoint_result("CCNC(=O)Nc1ccc(-c2cc(NCCn3c(C)cc4c(OC)ccc(Cl)c43)ncn2)cc1OC")
7.19
>>> endpoint_result("Cc1cc(F)cc2c1cc(C#N)n2CCNc1cc(-c2ccc(C(=O)O)c(CC(C)C)c2)ncn1")
6.95
>>> endpoint_result("CCNc1cc(-c2cc(NCCn3c(C)cc4c(OC)ccc(Cl)c43)ncn2)ccc1C(=O)O")
7.19

The record that follows has no pIC50 shown yet.
Reported pIC50 for COc1cc(F)cc2c1cc(C)n2CCNc1cc(-c2ccc(C(=O)O)c(C(C)(C)C)c2)ncn1 was 6.82

---

EP2 (Homo sapiens (Human)) data, read-out pIC50
Sequence (P43116 whole entry): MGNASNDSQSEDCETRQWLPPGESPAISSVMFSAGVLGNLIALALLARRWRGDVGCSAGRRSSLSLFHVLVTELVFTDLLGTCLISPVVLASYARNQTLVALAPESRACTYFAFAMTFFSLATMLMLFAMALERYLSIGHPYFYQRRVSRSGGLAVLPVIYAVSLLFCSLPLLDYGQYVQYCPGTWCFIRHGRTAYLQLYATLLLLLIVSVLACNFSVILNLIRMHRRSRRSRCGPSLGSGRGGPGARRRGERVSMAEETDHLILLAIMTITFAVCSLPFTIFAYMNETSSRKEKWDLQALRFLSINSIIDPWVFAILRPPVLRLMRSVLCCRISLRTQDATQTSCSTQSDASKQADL
Reminder that pIC50 is minus the log10 of a molar concentration.

Reported pIC50 for COc1ccc(F)c2c1cc(C)n2CCNc1cc(-c2cc(Cl)c(C(=O)O)c(OCC(F)(F)F)c2)ncn1 [compound 725] was 8.22

Reported pIC50 for Cc1ccc(Cl)c2c1cc(C)n2CCNc1cc(-c2ccc(C(=O)O)c(SC(C)C)c2)ncn1 [compound 410] was 7.29

Reported pIC50 for COc1ccc(F)c2c1cc(C)n2CCNc1cc(-c2cc(C(F)(F)F)c(C(=O)O)s2)nc(C)n1 [compound 540] was 7.74

Reported pIC50 for COc1c(F)cc(Cl)c2c1cc(C)n2CCNc1cc(-c2ccc3[nH][nH]c(=O)c3c2)ncn1 [Example 783] was 6.57

---

Target: EP2 (Homo sapiens (Human))
RECORDED_ENDPOINT: log10(IC50) (log10 of the value in nM)
Hey, these are logged values: log10 of IC50, nM being the unit before logging.

Previously resolved entries follow.
>>> endpoint_result("CCCOc1cc(-c2cc(NCCn3c(C)cc4c(OC)cc(F)cc43)ncn2)ccc1C(=O)O")
1.32
>>> endpoint_result("CCOc1cc(-c2cc(NCCn3c(C)cc4c(OC)c(Cl)cc(F)c43)ncn2)ccc1C(=O)O")
2.88
>>> endpoint_result("Cc1cnoc1-c1ccc(-c2cc(NCCn3c(C)cc4c(C)cc(F)cc43)ncn2)cc1")
1.98

Reported log10(IC50) for Cc1nc(-c2ccc(-c3cc(NCCn4c(C)cc5c(C)cc(F)c(F)c54)ncn3)cc2)c[nH]1 was 1.34

Reported log10(IC50) for CCOc1cc(-c2cc(NCCn3c(C)cc4c(Br)cccc43)ncn2)sc1C(=O)O was 0.00

Reported log10(IC50) for COc1cc(F)c(F)c2c1cc(C)n2CCNc1cc(-c2ccc(-c3cnc(N)o3)cc2)ncn1 was 1.36

Reported log10(IC50) for CCOc1cc(-c2cc(NCCn3c(C)cc4c(OC)ccc(F)c43)ncn2)ccc1CNCCOC was 2.36

Reported log10(IC50) for COc1cc(F)cc2c1cc(C)n2CCNc1cc(-c2ccc(C(=O)O)c(NCC(F)(F)F)c2)ncn1 was 0.30

Reported log10(IC50) for CCCc1cc(-c2cc(NCCn3c(C)cc4cc(OC)cc(F)c43)ncn2)ccc1C(=O)O was 2.24

Reported log10(IC50) for CCCc1cc(-c2cc(NCCn3c(C)cc4c(OC)c(F)ccc43)ncn2)cc(Cl)c1C(=O)O was 1.99

Reported log10(IC50) for CCCc1cc(-c2cc(NCCn3c(C)cc4c(C)ccc(F)c43)ncn2)cc(F)c1C(=O)O was 1.15

Reported log10(IC50) for Cc1ccc(F)c2c1cc(C)n2CCNc1cc(-c2ccc(-n3cncn3)cc2)ncn1 was 1.57

Reported log10(IC50) for Cc1c(F)cc(F)c2c1cc(C)n2CCNc1cc(-c2ccc(C(=O)O)c(CC(C)C)c2)ncn1 was 1.62

---

Target: PTRGER4 (EP4) (Homo sapiens (Human))
Sequence (P35408 whole entry, looked up): as the sequence (P35408 whole entry) above
Experiment: hEP4 b-arrestin assay (PathHunter HEK 293 PTGER4 b-arrestin cells)
Assay type: cell-based
Settings: hEP4 b-arrestin assay (values without asterisk)
// pIC50 lookup, one value per entry
Reminder that pIC50 is minus the log10 of a molar concentration.

The observed pIC50 for CCCOc1cc(-c2cc(NCCn3c(C#N)cc4c(OC)ccc(F)c43)ncn2)cc(Cl)c1C(=O)O when tested with PTRGER4 (EP4) (Homo sapiens (Human)) stands at 7.92

The observed pIC50 for [2H]C([2H])(Nc1cc(-c2cc(Cl)c(C(=O)O)c(OCCCC)c2)ncn1)C([2H])([2H])n1c(C)cc2c(OC)ccc(F)c21 when tested with PTRGER4 (EP4) (Homo sapiens (Human)) stands at 7.49

The observed pIC50 for COC(=O)c1ccc2[nH]c(-c3cc(NCCn4c(C#N)cc5c(OC)ccc(F)c54)ncn3)cc2c1 when tested with PTRGER4 (EP4) (Homo sapiens (Human)) stands at 7.96

The observed pIC50 for CCOc1cc(-c2cc(NCCn3c(C#N)cc4c(OC)ccc(F)c43)ncn2)ccc1CC(=O)O when tested with PTRGER4 (EP4) (Homo sapiens (Human)) stands at 7.74

The observed pIC50 for COc1cc(C(=O)O)cc(-c2cc(NCCn3c(C#N)cc4c(OC)ccc(F)c43)ncn2)c1 when tested with PTRGER4 (EP4) (Homo sapiens (Human)) stands at 7.26

The observed pIC50 for CCOc1cc(-c2cc(NCCn3c(C)cc4c(C)cc(F)cc43)ncn2)ccc1-c1noc(=O)[nH]1 when tested with PTRGER4 (EP4) (Homo sapiens (Human)) stands at 7.51

The observed pIC50 for COc1ccc(F)c2c1cc(C#N)n2CCNc1cc(-c2cc(F)c(C(=O)O)s2)ncn1 when tested with PTRGER4 (EP4) (Homo sapiens (Human)) stands at 8.00

The observed pIC50 for COC(=O)c1ccc(-c2cc(NCCn3c(C#N)cc4c(OC)ccc(F)c43)ncn2)cc1F when tested with PTRGER4 (EP4) (Homo sapiens (Human)) stands at 7.64

---

Target: PTRGER4 (EP4) (Homo sapiens (Human))
Experiment: hEP4 b-arrestin assay (PathHunter HEK 293 PTGER4 b-arrestin cells)
Format: cell-based
Details: hEP4 b-arrestin assay (values without asterisk)
// classify: if (IC50 < 0.03 µM) rule met else rule not met

>>> class_label("COc1ccc(F)c2c1cc(C#N)n2CCNc1cc(-c2c(C)noc2C)ncn1 [Example 993]")
"rule not met"
>>> class_label("CCOc1cc(-c2cc(NCCn3c(C#N)cc4c(OC)cc(F)c(F)c43)ncn2)ccc1C(=O)O [Example 957]")
"rule not met"
>>> class_label("CCOc1cc(-c2cc(NCCn3c(C#N)cc4c(Cl)cc(F)c(F)c43)ncn2)ccc1OCC(=O)O [Example 914]")
"rule not met"
>>> class_label("CCOc1cc(-c2cc(NCCn3c(C#N)cc4c(OC)ccc(F)c43)ncn2)sc1C(=O)Oc1ccccc1 [Example 1049]")
"rule met"
>>> class_label("Cc1ccc(F)c2c1cc(C#N)n2CCNc1cc(-c2cc(F)c(C(=O)O)s2)ncn1 [Example 851]")
"rule met"

Let us examine a further case.
-- ask Report whether reported IC50 is lower than 0.03 µM (strictly) for CCNC(=O)c1sc(-c2cc(NCCn3c(C#N)cc4c(OC)ccc(F)c43)ncn2)cc1OCC [Example 1024]
-- reply rule met

---

// pIC50 lookup, one value per entry
Molecular target: PTRGER4 (EP4) (Homo sapiens (Human))
Experiment: hEP4 b-arrestin assay (PathHunter HEK 293 PTGER4 b-arrestin cells)
Format: cell-based
Conditions: antagonistic activity on hEP4; mean where measured multiple times
Reminder that pIC50 is minus the log10 of a molar concentration.

>>> endpoint_result("Cc1cc(F)cc2c1cc(C)n2CCNc1cc(-c2cc(F)c(C(=O)O)s2)ncn1 [compound 48]")
6.45

Reported pIC50 for COc1ccc(F)c2c1cc(C)n2CCNc1cc(-c2ccc(-c3ccn[nH]3)cc2)ncn1 [compound 193] was 7.41

Reported pIC50 for Cc1ccc(F)c2c1cc(C)n2CCNc1cc(-c2ccc3c(c2)C(C)NC3=O)ncn1 (racemic) [compound 96] was 6.24

Reported pIC50 for Cc1cc(F)cc2c1cc(C)n2CCNc1cc(-c2ccc3[nH]c(C(F)(F)F)nc3c2)ncn1 [compound 297] was 6.09

---

Target: EP2 (Homo sapiens (Human));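 also: antagonism of PGE2-stimulated cAMP accumulation in SF295 human glioblastoma cells with endogenous EP2, cAMP read by HTRF, expressed relative to DMSO control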
RECORDED_ENDPOINT: IC50 (nM)
Could you give me the number in nM? Just the number is fine.

Reported IC50 for CCCc1cc(-c2cc(NCCn3c(C)cc4c(C)ccc(F)c43)ncn2)cc(Cl)c1C(=O)O was 29
